Cited source: patent US20160257755A1

Target: T1, recombinant endoglin (BIAcore analyte, Example 2) (UniProt P17813 26-586, limits assumed)
T1 sequence (looked up): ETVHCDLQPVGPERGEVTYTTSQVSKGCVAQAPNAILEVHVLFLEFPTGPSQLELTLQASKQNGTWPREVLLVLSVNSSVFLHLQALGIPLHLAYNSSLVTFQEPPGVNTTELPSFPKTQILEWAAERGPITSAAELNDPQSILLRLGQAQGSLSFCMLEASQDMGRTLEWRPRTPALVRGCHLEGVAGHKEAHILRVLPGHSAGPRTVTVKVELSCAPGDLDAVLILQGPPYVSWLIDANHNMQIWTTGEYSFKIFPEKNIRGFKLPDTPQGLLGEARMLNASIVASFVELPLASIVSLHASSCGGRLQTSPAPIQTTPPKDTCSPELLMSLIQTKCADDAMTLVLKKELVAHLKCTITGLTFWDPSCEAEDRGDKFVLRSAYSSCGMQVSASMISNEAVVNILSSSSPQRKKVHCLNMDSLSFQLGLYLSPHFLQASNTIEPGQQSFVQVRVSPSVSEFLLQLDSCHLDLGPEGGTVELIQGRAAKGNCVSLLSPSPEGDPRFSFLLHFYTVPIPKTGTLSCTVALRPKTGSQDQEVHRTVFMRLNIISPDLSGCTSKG
Test: SPR (BIAcore), antibody captured on protein A, recombinant endoglin as analyte
I'd appreciate it if you could supply pKd values for the items below.
Notebook: values listed as pKd are -log10 of the concentration (mol/L).

Query: Reported pKd, binder humanized/deimmunized anti-endoglin antibody VK1AAVH1R (antibody, human IgG1, V domains shown) VH: EVQLVESGGGLVKPGGSLRLSCAASGFTFSDAWMDWVRQAPGKGLEWVGEIRSRASNHATYYAESVKGRFTISRDDSKNTLYLQMNSLKTEDTAVYYCTRWRRFFDSWGQGTLVTVSS VL: DIQMTQSPSSLSASVGDRATITCRASSSVSYMHWYQQKPGKAPKPWAYATSNLASGVPSRFSGSGSGTDYTLTISSLQPEDFATYYCQQWSSNPLTFGGGTKVEIK : ____
Result: 9.27

Query: # get_value(readout='pKd', item= humanized/deimmunized anti-endoglin antibody VK1AAVH1Q (antibody, human IgG1, V domains shown) VH: EVQLVESGGGLVKPGGSLRLSCAASGFTFSDAWMDWVRQAPGKGLEWVGEIRSQASNHATYYAESVKGRFTISRDDSKNTLYLQMNSLKTEDTAVYYCTRWRRFFDSWGQGTLVTVSS VL: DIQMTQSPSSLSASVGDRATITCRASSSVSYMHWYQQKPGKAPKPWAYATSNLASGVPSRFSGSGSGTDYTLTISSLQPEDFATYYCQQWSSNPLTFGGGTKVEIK )
Result: 9.07

Query: // returns reported pKd for input chimeric anti-endoglin antibody (TRC105) (antibody, V domains shown, also called chimeric anti-CD105; c-SN6j) VH: EVKLEESGGGLVQPGGSMKLSCAASGFTFSDAWMDWVRQSPEKGLEWVAEIRSKASNHATYYAESVKGRFTISRDDSKSSVYLQMNSLRAEDTGIYYCTRWRRFFDSWGQGTTLTVSS VL: QIVLSQSPAILSASPGEKVTMTCRASSSVSYMHWYQQKPGSSPKPWIYATSNLASGVPVRFSGSGSGTSYSLTISRVEAEDAATYYCQQWSSNPLTFGAGTKLELK
Result: 9.22

Query: // returns reported pKd for input humanized/deimmunized anti-endoglin antibody VK1AAVH1A2 (antibody, V domains shown, It has the same variable domains as TRC205, which is IgG4) VH: EVQLVESGGGLVKPGGSLRLSCAASGFTFSDAWMDWVRQAPGKGLEWVGEARSKASNHATYYAESVKGRFTISRDDSKNTLYLQMNSLKTEDTAVYYCTRWRRFFDSWGQGTLVTVSS VL: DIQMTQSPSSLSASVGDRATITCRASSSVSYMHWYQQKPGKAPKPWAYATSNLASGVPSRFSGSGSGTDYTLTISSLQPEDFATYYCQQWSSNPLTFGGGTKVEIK
Result: 9.15
